Experiment: physchem
Conditions: octan-1-ol/water, pH 7.4, LogD7.4
Decide by logD: equal to or exceeding 3 means 1 (yes), less means 0 (no).

>  <compound>
O=C(NCC12CC3CC(CC(C3)C1)C2)c1ccccc1Cl

>  <assigned.category>
1 (yes)

$$$$
>  <compound>
O=C(O)CCc1ccc(OCc2cc(Cl)ccc2-c2ccccc2)cc1

>  <assigned.category>
1 (yes)

$$$$
>  <compound>
NC(=O)COc1ccc(OCCNCC(O)COc2ccccc2)cc1 (stereo not given)

>  <assigned.category>
0 (no)

$$$$
>  <compound>
CCC(C)(C)C(=O)O[C@H]1C[C@@H](C)C=C2C=C[C@H](C)[C@H](CC[C@@H](O)C[C@@H](O)CC(=O)O)[C@H]21 [TENIVASTATIN]

>  <assigned.category>
0 (no)

$$$$
>  <compound>
CC(C)CCCC(C)/N=c1\ccn(Cc2ccccc2)c2cc(Cl)ccc12 (stereo not given)

>  <assigned.category>
0 (no)

$$$$
>  <compound>
CCC(C)NC(=O)c1c(C)nn(-c2ccccc2)c1NS(=O)(=O)c1ccc(C)cc1 (stereo not given)

>  <assigned.category>
0 (no)

$$$$
>  <compound>
CNc1c(Br)cnc2nc(-c3ccc(OCCN4CCCCC4)cc3)[nH]c12

>  <assigned.category>
0 (no)

$$$$
>  <compound>
Cc1ncc(-c2ccnc(Nc3ccc(S(=O)(=O)CCCN4CCOCC4)cc3)n2)n1C(C)C

>  <assigned.category>
0 (no)

$$$$
>  <compound>
c1ccc(Nc2cc(Nc3ccccc3)[nH]n2)cc1

>  <assigned.category>
1 (yes)

$$$$
>  <compound>
C[C@@H](NC(=O)C1CCCCN1C)c1ccc(Nc2ncc3cc(-c4ccncc4)ccc3n2)cc1 (stereo not given in full)

>  <assigned.category>
1 (yes)

$$$$
>  <compound>
CCC[C@H](CO)Nc1nc(S[C@@H](C)c2cccc(C#N)c2)nc2[nH]c(=O)sc12

>  <assigned.category>
1 (yes)

$$$$
>  <compound>
Cc1sc2ncnc(SCC(=O)N3CCCC3)c2c1C

>  <assigned.category>
0 (no)

$$$$
>  <compound>
CCOC(=O)c1ccc(COCC2CCN(c3ccc(C)nn3)CC2)cc1

>  <assigned.category>
0 (no)

$$$$
>  <compound>
Cc1nc(C)c(-c2ccc(C34CCC(CC(=O)O)(CC3)CC4)cc2)nc1C(N)=O

>  <assigned.category>
0 (no)

$$$$
>  <compound>
O=C(CCCc1ccncc1)N1CCN(c2ccc(Cl)cc2Cl)CC1

>  <assigned.category>
1 (yes)

$$$$

----------
Assay: physchem
Details: octan-1-ol/water, pH 7.4, LogD7.4
A collection of compounds and their measured logD

>  <substance.smiles>
Cc1ccc(S(=O)(=O)NC(=O)N2CCC(N3CCC(Oc4ccc(Cl)c(C)c4Cl)CC3)CC2)cc1

>  <logD>
2.2

$$$$
>  <substance.smiles>
Oc1cccc2nc(-c3ccccc3)cc(O)c12

>  <logD>
3.37

$$$$
>  <substance.smiles>
O=C(O)c1cc2cc(OCc3ccccc3)ccc2[nH]1

>  <logD>
0.4

$$$$
>  <substance.smiles>
Nc1nc(N)c2nc(CO)cnc2n1

>  <logD>
-0.45

$$$$

----------
A collection of molecules and their measured logD
Experiment: physchem
Settings: octan-1-ol/water, pH 7.4, LogD7.4
test.readout: logD

>  <molecule>
COc1cccc(C(COCc2cc(C(F)(F)F)cc(C(F)(F)F)c2)N2CCNCC2)c1 (stereo not drawn)

>  <reading>
3.1

$$$$
>  <molecule>
Cn1c(N)nc(CCc2ccccc2)cc1=O

>  <reading>
2

$$$$
>  <molecule>
COc1cc(C(=O)N2CCOCC2)ccc1Nc1ncc(Cl)c(-c2cnc3ccccn23)n1

>  <reading>
3.4

$$$$
>  <molecule>
COc1cc(F)ccc1-c1cncc(CNC(=O)c2ccccc2)c1

>  <reading>
3.76

$$$$
>  <molecule>
c1ccc2[nH]c(CCCc3nc4ccccc4[nH]3)nc2c1

>  <reading>
3.5

$$$$
>  <molecule>
Cc1cc(Nc2ccc(F)cc2)nc(N)n1

>  <reading>
2.08

$$$$
>  <molecule>
Cc1cc(Nc2cc(N3CCOCC3)nc(N[C@@H](C)c3ncc(F)cn3)n2)[nH]n1

>  <reading>
1.91

$$$$
>  <molecule>
O=c1[nH]c2c(O)ccc([C@@H](O)CNCCc3cccc(CN4CCC(c5ccccc5)CC4)c3)c2s1

>  <reading>
1.99

$$$$
>  <molecule>
N#Cc1c(-c2ccc(-c3ccccc3C(F)(F)F)cc2)nc2ccncc2c1O

>  <reading>
3.3

$$$$
>  <molecule>
Cc1ccc(S(=O)(=O)Nc2c(C(=O)NC3CCCCC3)c(C)nn2-c2ccccc2)cc1

>  <reading>
1.68

$$$$
>  <molecule>
Cc1ccc(-c2cn(C)c(C)n2)cc1NC(=O)c1ccc(OCc2ccccn2)cc1

>  <reading>
2.71

$$$$
>  <molecule>
CC(C)C[C@H](CO)Nc1nc(SCc2cccc(C#N)c2)nc2nc(N)sc12

>  <reading>
3.9

$$$$
>  <molecule>
Fc1ccc([C@@H]2CCNC[C@H]2COc2ccc3c(c2)OCO3)cc1

>  <reading>
1.78

$$$$
